# Test system: L. infantum (MHOM/BR/2002/LPC-RPV) promastigotes
# ASSAY_DETAILS: In vitro antileishmanial activity against promastigotes (resazurin)
# Assay type: cell-based, Leishmania infantum
# APPLIED_CONDITIONS: Leishmania infantum, 48 h, 48 h at 28 °C, three independent experiments
pIC50: −log10 of the molar value.
MEASURE: pIC50

COMPOUND: CC(=O)Nc1ccc(S(=O)(=O)Nc2cc(C)nn2-c2ccccn2)cc1 [LC-38]
MEASURE: pIC50
MEASUREMENT: < 4.00

Per the records, this compound ( O=C(Nc1cccnc1Cl)c1cc(-c2ccc3c(c2)OCO3)on1 [LC-36] ) has pIC50 equal to < 4.00

Per the records, this compound ( Cc1nc2ccc(Cl)cn2c1C(=O)N1CCCC1c1ccccn1 (stereo not drawn) [LC-25] ) has pIC50 equal to < 4.00
